Data provenance: ChEMBL document CHEMBL1154304

# Test system: RAW264.7
# procedure.text: Antiinflammatory activity against mouse RAW264.7 cells assessed as inhibition of LPS-induced nitrite accumulation after 24 hrs by Griess reagent method
# Assay type: functional, cell-based
# experimental.parameters: RAW264.7, 24 h
pIC50: −log10 of the molar value.
Below is a list of entries, each paired with its recorded pIC50 value.

Worked examples, 5 compounds total:
compound	assay.result
O=c1cc(-c2ccc(O)c(O)c2)oc2cc(O[C@@H]3O[C@H](CO)[C@@H](O)[C@H](O)[C@H]3O)cc(O)c12 [GALUTEOLIN]	< 4.70
COc1cc(/C=C/C(=O)CC(=O)/C=C/c2ccc(O)c(OC)c2)ccc1O [CURCUMIN]	5.08
COc1cc(-c2cc(=O)c3c(O)cc(O)cc3o2)ccc1O [CHRYSOERIOL]	4.85
COc1cc(/C=C/C(=O)OC[C@@]2(O)CO[C@@H](O[C@H]3[C@H](Oc4cc(O)c5c(=O)cc(-c6ccc(O)c(OC)c6)oc5c4)O[C@H](CO)[C@@H](O)[C@@H]3O)[C@@H]2O)ccc1O	< 4.70
O=c1cc(-c2ccc(O)cc2)oc2cc(O[C@@H]3O[C@H](CO)[C@@H](O)[C@H](O)[C@H]3O)cc(O)c12 [APIGETRIN]	< 4.70

Input: Fill blank: measured pIC50 of the compound COc1cc(/C=C/C(=O)OC[C@@]2(O)CO[C@@H](O[C@H]3[C@H](Oc4cc(O)c5c(=O)cc(-c6ccc(O)cc6)oc5c4)O[C@H](CO)[C@@H](O)[C@@H]3O)[C@@H]2O)ccc1O is ____.
Output: < 4.70

Input: Fill blank: measured pIC50 of the compound CC1(C)C[C@H]2C3=CC(=O)[C@@H]4[C@@]5(C)CC[C@H](O)[C@](C)(CO[C@@H]6O[C@H](CO)[C@@H](O)[C@H](O)[C@H]6O)[C@@H]5CC[C@@]4(C)[C@]3(C)[C@@H](O)C[C@@]2(C)CC1=O is ____.
Output: < 4.70

Input: Fill blank: measured pIC50 of the compound O=c1cc(-c2ccc(O)c(O)c2)oc2cc(O)cc(O)c12 [LUTEOLIN] is ____.
Output: 5.12

Input: Fill blank: measured pIC50 of the compound COc1cc(-c2cc(=O)c3c(O)cc(O[C@@H]4O[C@H](CO)[C@@H](O)[C@H](O)[C@H]4O)cc3o2)ccc1O is ____.
Output: < 4.70

Input: Fill blank: measured pIC50 of the compound O=c1cc(-c2ccc(O)cc2)oc2cc(O)cc(O)c12 [APIGENIN] is ____.
Output: 5.17

Input: Fill blank: measured pIC50 of the compound COc1cc(/C=C/C(=O)OC[C@@]2(O)CO[C@@H](O[C@H]3[C@H](Oc4cc(O)c5c(=O)cc(-c6ccc(O)c(O)c6)oc5c4)O[C@H](CO)[C@@H](O)[C@@H]3O)[C@@H]2O)ccc1O is ____.
Output: < 4.70

Input: Fill blank: measured pIC50 of the compound C[C@H]1[C@H](C)C(=O)C[C@]2(C)C[C@H](O)[C@]3(C)C(=CC(=O)[C@@H]4[C@@]5(C)CC[C@H](O)[C@](C)(CO[C@@H]6O[C@H](CO)[C@@H](O)[C@H](O)[C@H]6O)[C@@H]5CC[C@]43C)[C@H]12 is ____.
Output: < 4.70

Input: Fill blank: measured pIC50 of the compound O=c1c(O)c(-c2ccc(O)c(O)c2)oc2cc(O)cc(O)c12 [QUERCETIN] is ____.
Output: 4.94
